biological target: human TNAP (Homo sapiens (Human)); experiment: Inhibitory test of TNAP activity (pNPP substrate, p-nitrophenol production); conditions: inhibition of human TNAP activity, incubated at room temperature for 60 minutes
Sequence (P05186 18-502): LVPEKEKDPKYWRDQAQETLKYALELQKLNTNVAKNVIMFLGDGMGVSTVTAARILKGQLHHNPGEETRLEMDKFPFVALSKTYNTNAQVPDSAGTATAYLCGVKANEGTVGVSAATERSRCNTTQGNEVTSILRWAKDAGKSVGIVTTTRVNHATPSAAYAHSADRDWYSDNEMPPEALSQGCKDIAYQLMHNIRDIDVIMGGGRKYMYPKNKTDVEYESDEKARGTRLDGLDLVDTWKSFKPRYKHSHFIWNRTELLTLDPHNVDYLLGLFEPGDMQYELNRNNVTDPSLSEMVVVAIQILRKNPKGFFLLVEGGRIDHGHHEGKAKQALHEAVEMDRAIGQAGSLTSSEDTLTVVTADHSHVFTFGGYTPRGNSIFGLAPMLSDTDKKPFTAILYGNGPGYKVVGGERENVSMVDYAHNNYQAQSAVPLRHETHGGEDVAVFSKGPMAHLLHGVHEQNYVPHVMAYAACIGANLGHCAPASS
READOUT_LABEL: IC50 (nM)
// return numeric value only (unit: nM, not printed)

Look over these answered cases.
LINE_NOTATION | ASSAYED_SYSTEM | DISPLAY_UNIT | IC50
CC[C@H]1COc2ncc(NS(=O)(=O)c3cc(Cl)ccc3OC)cc2C(=O)N1C | human TNAP (Homo sapiens (Human)) | nM | 7.2
O=C1N[C@@H](CO)COc2ncc(NS(=O)(=O)c3cc(F)ccc3OC(F)(F)F)cc21 | human TNAP (Homo sapiens (Human)) | nM | 4.1

Q) So what's the measured IC50 for this one? COc1ccc(F)cc1S(=O)(=O)Nc1cnc2c(c1)C(=O)NCCO2
A) 4
